Below is a list of entries, each paired with its recorded Bmax (MFI) value.
# testTarget: T1, human glypican-3 (GPC3) (human, UniProt P51654 25-554)
# T1 construct: Endogenous on JHH-7, JHH-5, HepG2 and NCI-H446 tumour cells, or transiently expressed on CHO-S cells from a pTT5 plasmid; also called hGPC3; huGPC3
# experimentDescription: flow cytometry on JHH-7 cells (GPC3-high);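 note: antibody binding at 4 °C for 24 h, detected with anti-human AF647 secondary, geometric mean fluorescence of live cells versus antibody concentration, fitted as specific binding with Hill slope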

binder: H18L6_LC_N33Q mAb, v40220 (antibody, human IgG1, kappa, V domains shown, M3-H18L6 chains with the stated light chain point mutation, IgG1/kappa) VH: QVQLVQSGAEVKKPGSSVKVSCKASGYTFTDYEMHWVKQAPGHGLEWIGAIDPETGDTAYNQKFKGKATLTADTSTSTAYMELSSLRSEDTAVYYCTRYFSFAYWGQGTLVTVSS VL: EIVLTQSPATLSLSPGERATISCRSSQSLRHSQGNTYLQWYQQKPGQAPRLLIYKVSNRFSGVPARFSGSGSGTDFTLTISSLEPEDFAVYFCYQSKHVPYTFGGGTKVEIKR
resultUnit: MFI
Bmax (MFI): 7220
//
binder: H18L6_LC_N33A mAb, v40219 (antibody, human IgG1, kappa, V domains shown, M3-H18L6 chains with the stated light chain point mutation, IgG1/kappa) VH: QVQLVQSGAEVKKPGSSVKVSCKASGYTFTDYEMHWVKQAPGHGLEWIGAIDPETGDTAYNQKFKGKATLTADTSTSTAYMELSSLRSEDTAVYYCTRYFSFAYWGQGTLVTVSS VL: EIVLTQSPATLSLSPGERATISCRSSQSLRHSAGNTYLQWYQQKPGQAPRLLIYKVSNRFSGVPARFSGSGSGTDFTLTISSLEPEDFAVYFCYQSKHVPYTFGGGTKVEIKR
resultUnit: MFI
Bmax (MFI): 7870
//
binder: H18L6_LC_G34K mAb, v40207 (antibody, human IgG1, kappa, V domains shown, Full-size IgG1/kappa) VH: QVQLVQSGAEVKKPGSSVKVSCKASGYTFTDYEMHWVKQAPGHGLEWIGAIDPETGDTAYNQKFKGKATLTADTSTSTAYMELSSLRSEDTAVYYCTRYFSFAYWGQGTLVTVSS VL: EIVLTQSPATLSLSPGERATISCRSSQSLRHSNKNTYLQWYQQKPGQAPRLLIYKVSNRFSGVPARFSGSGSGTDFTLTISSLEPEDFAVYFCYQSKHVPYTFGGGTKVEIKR
resultUnit: MFI
Bmax (MFI): 12200
//
binder: H18L6_LC_G34V mAb, v40211 (antibody, human IgG1, kappa, V domains shown, M3-H18L6 chains with the stated light chain point mutation, IgG1/kappa) VH: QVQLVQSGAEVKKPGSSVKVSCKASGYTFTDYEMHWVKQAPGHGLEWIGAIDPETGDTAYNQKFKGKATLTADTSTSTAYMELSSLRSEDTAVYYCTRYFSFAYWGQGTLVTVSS VL: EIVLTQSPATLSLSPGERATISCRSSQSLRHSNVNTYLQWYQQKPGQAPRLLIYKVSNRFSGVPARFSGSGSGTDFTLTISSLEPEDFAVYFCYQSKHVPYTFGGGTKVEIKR
resultUnit: MFI
Bmax (MFI): 7420
//
binder: H18L6_LC_G34R mAb, v40206 (antibody, human IgG1, kappa, V domains shown, Full-size IgG1/kappa) VH: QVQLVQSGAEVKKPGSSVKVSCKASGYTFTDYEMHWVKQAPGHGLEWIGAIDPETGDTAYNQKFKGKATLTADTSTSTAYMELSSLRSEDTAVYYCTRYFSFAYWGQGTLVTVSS VL: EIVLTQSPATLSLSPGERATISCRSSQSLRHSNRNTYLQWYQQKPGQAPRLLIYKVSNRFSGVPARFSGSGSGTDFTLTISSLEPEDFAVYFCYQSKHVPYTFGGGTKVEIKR
resultUnit: MFI
Bmax (MFI): 12500
